Measured DMFm (dose modification factor at maximum protection) accompanies every entry in the list below.
# Test system: transformed human keratinocyte cell line (FEP 1811)
# Assay overview: Clonogenic survival cell culture assay for radioprotective activity (12 Gy 137Cs gamma irradiation)
# Assay type: cell-based
# Test context: 12 Gy; DMF=Dp/Dc at survival level Sm
Form rule: numeric answer, no unit written next to it.

Study these solved cases before continuing.
Look at this compound and give its reported DMFm (dose modification factor at maximum protection). "CN1CCN(c2ccc3nc(-c4ccc5nc(-c6ccc(F)cn6)[nH]c5c4)[nH]c3c2)CC1"
2.46

Look at this compound and give its reported DMFm (dose modification factor at maximum protection). "Cc1ccc(-c2nc3ccc(-c4nc5ccc(N6CCC(O)CC6)cc5[nH]4)cc3[nH]2)nc1"
2.07

Look at this compound and give its reported DMFm (dose modification factor at maximum protection). "C[C@@H]1CN(c2ccc3nc(-c4ccc5nc(-c6ccccn6)[nH]c5c4)[nH]c3c2)C[C@H](C)O1"
1.75

Next:
Look at this compound and give its reported DMFm (dose modification factor at maximum protection). "CN1CCN(c2ccc3nc(-c4ccc5nc(-c6ncccc6C(F)(F)F)[nH]c5c4)[nH]c3c2)CC1"
1.99

###

# Test system: transformed human keratinocyte cell line (FEP 1811)
# Assay overview: Clonogenic survival cell culture assay for radioprotective activity (12 Gy 137Cs gamma irradiation)
# Assay type: cell-based
# Test context: 12 Gy; DMF=Dp/Dc at survival level Sm
Measure name: DMFm (dose modification factor at maximum protection)
Form rule: numeric answer, no unit written next to it.

Study these solved cases before continuing.
Look at this compound and give its reported DMFm (dose modification factor at maximum protection). "OCCN1CCN(c2ccc3nc(-c4ccc5nc(-c6ccccn6)[nH]c5c4)[nH]c3c2)CC1"
1.95

Look at this compound and give its reported DMFm (dose modification factor at maximum protection). "COc1ccnc(-c2nc3ccc(-c4nc5ccc(N6CCN(C)CC6)cc5[nH]4)cc3[nH]2)c1"
2.28

Look at this compound and give its reported DMFm (dose modification factor at maximum protection). "CN(C)Nc1ccc2[nH]c(-c3ccc4[nH]c(-c5ccccn5)nc4c3)nc2c1"
1.71

Look at this compound and give its reported DMFm (dose modification factor at maximum protection). "COc1cc(-c2nc3cc(N4CCN(C)CC4)ccc3[nH]2)cc2nc(-c3ccccn3)[nH]c12"
1.97

Look at this compound and give its reported DMFm (dose modification factor at maximum protection). "CCCCN1CCN(c2ccc3nc(-c4ccc5nc(-c6ccccn6)[nH]c5c4)[nH]c3c2)CC1"
2.27

Next:
Look at this compound and give its reported DMFm (dose modification factor at maximum protection). "CN1CCN(c2ccc3nc(-c4ccc5nc(-c6cc7ccccc7cn6)[nH]c5c4)[nH]c3c2)CC1"
2.45

Look at this compound and give its reported DMFm (dose modification factor at maximum protection). "CN1CCN(c2ccc3nc(-c4ccc5nc(-c6ccccn6)[nH]c5c4)[nH]c3c2)CC1"
2.10

Look at this compound and give its reported DMFm (dose modification factor at maximum protection). "c1ccc(-c2nc3ccc(-c4nc5ccc(N6CCCCC6)cc5[nH]4)cc3[nH]2)nc1"
1.42

###

Measured PF (protection factor = Sm/So) accompanies every entry in the list below.
# Test system: transformed human keratinocyte cell line (FEP 1811)
# Assay overview: Clonogenic survival cell culture assay for radioprotective activity (12 Gy 137Cs gamma irradiation)
# Type: cell-based
# Test context: 12 Gy; survival at maximum protection vs irradiation only
Form rule: numeric answer, no unit written next to it.

Study these solved cases before continuing.
Look at this molecule and give its reported PF (protection factor = Sm/So). CN1CCN(c2ccc3nc(-c4ccc5nc(-c6ccc[nH]c6=O)[nH]c5c4)[nH]c3c2)CC1 [Example 18]
1.1

Look at this molecule and give its reported PF (protection factor = Sm/So). Cc1ccc(-c2nc3ccc(-c4nc5ccc(N6CCN(C)CC6)cc5[nH]4)cc3[nH]2)nc1 [Example 6]
26.2

Look at this molecule and give its reported PF (protection factor = Sm/So). CN1CCN(c2ccc3nc(-c4ccc5nc(-c6ccccn6)[nH]c5c4)[nH]c3c2)CC1 [Example 2]
18.2

Look at this molecule and give its reported PF (protection factor = Sm/So). COCCN(C)c1ccc2[nH]c(-c3ccc4[nH]c(-c5ccccn5)nc4c3)nc2c1 [Example 38]
8.8

Look at this molecule and give its reported PF (protection factor = Sm/So). CN1CCN(c2ccc3nc(-c4ccc5nc(-c6cc(Cl)ccn6)[nH]c5c4)[nH]c3c2)CC1 [Example 8]
39.6

Look at this molecule and give its reported PF (protection factor = Sm/So). OC1CCN(c2ccc3nc(-c4ccc5nc(-c6cc7ccccc7cn6)[nH]c5c4)[nH]c3c2)CC1 [Example 23]
36.5

Look at this molecule and give its reported PF (protection factor = Sm/So). CN1CCN(c2ccc3nc(-c4ccc5nc(-c6cc(C(F)(F)F)ccn6)[nH]c5c4)[nH]c3c2)CC1 [Example 48]
63.8

Look at this molecule and give its reported PF (protection factor = Sm/So). CN1CCCN(c2ccc3nc(-c4ccc5nc(-c6ccccn6)[nH]c5c4)[nH]c3c2)CC1 [Example 25]
16.7

Next:
Look at this molecule and give its reported PF (protection factor = Sm/So). C[C@@H]1CN(c2ccc3nc(-c4ccc5nc(-c6ccccn6)[nH]c5c4)[nH]c3c2)C[C@H](C)O1 [Example 52]
55.9

Look at this molecule and give its reported PF (protection factor = Sm/So). CN1CCN(c2ccc3nc(-c4ccc5nc(-c6ccc(F)cn6)[nH]c5c4)[nH]c3c2)CC1 [Example 47]
40.0

Look at this molecule and give its reported PF (protection factor = Sm/So). Cc1ccnc(-c2nc3ccc(-c4nc5ccc(N6CCOCC6)cc5[nH]4)cc3[nH]2)c1 [Example 21]
18.2

Look at this molecule and give its reported PF (protection factor = Sm/So). CN1CCN(c2ccc3nc(-c4ccc5nc(-c6n[nH]c7ccccc67)[nH]c5c4)[nH]c3c2)CC1 [Example 16]
18.3

Look at this molecule and give its reported PF (protection factor = Sm/So). CN1CCN(c2ccc3nc(-c4ccc5nc(-c6ncccc6C(F)(F)F)[nH]c5c4)[nH]c3c2)CC1 [Example 4]
30.5

Look at this molecule and give its reported PF (protection factor = Sm/So). OC1CCN(c2ccc3nc(-c4ccc5nc(-c6ccccn6)[nH]c5c4)[nH]c3c2)CC1 [Example 22]
21.3
